Molecular target: glucocorticoid receptor (Homo sapiens (Human), UniProt P04150)
Sequence (P04150 whole entry): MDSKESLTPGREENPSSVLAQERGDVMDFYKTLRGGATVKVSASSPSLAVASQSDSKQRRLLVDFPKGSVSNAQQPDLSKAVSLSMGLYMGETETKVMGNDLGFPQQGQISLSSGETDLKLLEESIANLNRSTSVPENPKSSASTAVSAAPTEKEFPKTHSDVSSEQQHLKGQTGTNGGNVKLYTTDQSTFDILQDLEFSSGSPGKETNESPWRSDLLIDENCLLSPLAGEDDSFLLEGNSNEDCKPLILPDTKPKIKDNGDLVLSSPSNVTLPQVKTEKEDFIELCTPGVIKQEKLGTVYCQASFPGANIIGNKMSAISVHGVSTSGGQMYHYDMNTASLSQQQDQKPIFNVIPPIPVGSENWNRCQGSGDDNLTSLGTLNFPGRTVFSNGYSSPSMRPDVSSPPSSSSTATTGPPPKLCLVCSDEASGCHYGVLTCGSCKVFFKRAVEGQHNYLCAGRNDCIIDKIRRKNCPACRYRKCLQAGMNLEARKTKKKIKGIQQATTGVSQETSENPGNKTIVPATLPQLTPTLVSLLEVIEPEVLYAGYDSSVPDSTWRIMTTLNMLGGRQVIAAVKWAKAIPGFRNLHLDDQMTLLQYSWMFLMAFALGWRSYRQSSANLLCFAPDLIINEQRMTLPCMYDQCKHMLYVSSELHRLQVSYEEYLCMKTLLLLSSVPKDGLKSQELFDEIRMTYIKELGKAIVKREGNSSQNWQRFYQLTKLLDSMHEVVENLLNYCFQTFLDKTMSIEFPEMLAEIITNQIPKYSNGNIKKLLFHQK
Experiment: HepG2 TAT assay: inhibition of dexamethasone-induced tyrosine aminotransferase (TAT) activity
Conditions: HepG2 cells, challenge of 100 nM dexamethasone, 18-24 hr; IC50 converted to Ki by Cheng and Prusoff equation
endpoint: log10 Ki (log10 of the value in nM)

# compound, endpoint, quantitative-readout
measured = [
    ("CO[C@]1(c2ccccc2)C[C@H]2CN(S(=O)(=O)c3cnn(C)c3)C[C@@]2(c2cc3cnn(-c4ccc(F)cc4)c3cc2C)C1 [Example 8]", "log10 Ki", 2.49),
    ("Cc1cc2c(cnn2-c2ccc(F)cc2)cc1[C@@]12CN(S(=O)(=O)c3cnn(C)n3)C[C@@H]1[C@H]2C(=O)NC1CCCC1 [Example 61]", "log10 Ki", 2.30),
    ("Cc1cc2c(cnn2-c2ccc(F)cc2)cc1[C@]12CN(S(=O)(=O)c3cnn(C(C)C)n3)C[C@H]1[C@@H]2c1ccccc1 [Example 80]", "log10 Ki", 1.36),
    ("CCCn1cc(S(=O)(=O)N2CC3CC(Oc4ccccc4)CC3(c3cc4cnn(-c5ccc(F)cc5)c4cc3C)C2)cn1 (stereo not drawn) [Example 43]", "log10 Ki", 1.61),
    ("Cc1cc2c(cnn2-c2ccc(F)cc2)cc1[C@@]12CN(S(=O)(=O)c3cnn(C)n3)C[C@@H]1[C@H]2Cn1cccn1 (stereo in doubt) [Example 132]", "log10 Ki", 2.54),
    ("Cc1cc2c(cnn2-c2ccc(F)cc2)cc1C12CC(Oc3cccnc3)CC1CN(S(C)(=O)=O)C2 (stereo not drawn) [Example 42]", "log10 Ki", 2.41),
]

----------
Molecular target: glucocorticoid receptor (Homo sapiens (Human))
Experiment: HepG2 TAT assay: inhibition of dexamethasone-induced tyrosine aminotransferase (TAT) activity
Conditions: HepG2 cells, challenge of 100 nM dexamethasone, 18-24 hr; IC50 converted to Ki by Cheng and Prusoff equation
Method: Glucocorticoid mediated activation of TAT occurs by transactivation of glucocorticoid response elements in the TAT promoter by glucocorticoid receptor-agonist complex. HepG2 cells were cultured using MEME media supplemented with 10% (v/v) foetal bovine serum; 2 mM L-glutamine and 1% (v/v) NEAA at 37° C., 5%/95% (v/v) CO2/air. Compounds were serially half log diluted in 100% (v/v) dimethylsulphoxide from a 10 mM stock. […]
endpoint: Ki (nM)

# compound, test-target, endpoint, units-label, quantitative-readout
rows = [
    ("Cc1cc2c(cnn2-c2ccc(F)cc2)cc1[C@@]12CN(C(=O)c3ncccc3C(F)(F)F)C[C@@H]1[C@H]2c1ccccc1 (single isomer, unassigned) [Example 148]", "glucocorticoid receptor (Homo sapiens (Human))", "Ki", "nM", 9.2),
    ("Cc1cc2c(cnn2-c2ccc(F)cc2)cc1C12CC(Oc3ccccc3)CC1CN(C(=O)OC(C)(C)C)C2 (stereo not drawn) [Example 45]", "glucocorticoid receptor (Homo sapiens (Human))", "Ki", "nM", 96),
    ("Cc1cc2c(cnn2-c2ccc(F)cc2)cc1C12CN(S(=O)(=O)c3cnn(C)c3)CC1CC(O)(c1ccccc1)C2 (stereo not drawn) [Example 10]", "glucocorticoid receptor (Homo sapiens (Human))", "Ki", "nM", 220),
    ("Cc1ccc(C(=O)N2C[C@@H]3[C@@H](c4ccccc4)[C@]3(c3cc4cnn(-c5ccc(F)cc5)c4cc3C)C2)nc1 (single isomer, unassigned) [Example 151]", "glucocorticoid receptor (Homo sapiens (Human))", "Ki", "nM", 28),
    ("CCn1ccc(S(=O)(=O)N2C[C@@H]3[C@@H](c4ccccc4)[C@]3(c3cc4cnn(-c5ccc(F)cc5)c4cc3C)C2)n1 [Example 92]", "glucocorticoid receptor (Homo sapiens (Human))", "Ki", "nM", 9.5),
    ("Cc1cc2c(cnn2-c2ccc(F)cc2)cc1C12CC(Oc3ccccn3)CC1CN(S(C)(=O)=O)C2 (stereo not drawn) [Example 41]", "glucocorticoid receptor (Homo sapiens (Human))", "Ki", "nM", 110),
]

----------
Items are presented alongside their recorded Ki.
Molecular target: glucocorticoid receptor (Homo sapiens (Human))
Test: HepG2 TAT assay: inhibition of dexamethasone-induced tyrosine aminotransferase (TAT) activity
Settings: HepG2 cells, challenge of 100 nM dexamethasone, 18-24 hr; IC50 converted to Ki by Cheng and Prusoff equation

# compound, Ki, nM
measured = [
    ("CC(=O)N1C[C@@H]2[C@@H](c3ccccc3)[C@]2(c2cc3cnn(-c4ccc(F)cc4)c3cc2C)C1 (single isomer, unassigned) [Example 111]", 52),
    ("Cc1cc2c(cnn2-c2ccc(F)cc2)cc1[C@]12CN(S(=O)(=O)c3cn(C)nn3)C[C@H]1[C@@H]2c1ccccc1 [Example 97]", 32),
    ("Cc1cc2c(cnn2-c2ccc(F)cc2)cc1[C@@]12CN(C(=O)c3ccccc3)C[C@@H]1[C@H]2c1cccnc1 (stereo in doubt) [Example 173]", 130),
    ("Cc1cc2c(cnn2-c2ccc(F)cc2)cc1[C@@]12CN(C(=O)c3cccnc3)C[C@@H]1[C@H]2c1ccccc1 (single isomer, unassigned) [Example 112]", 65),
    ("Cc1cc2c(cnn2-c2ccc(F)cc2)cc1[C@@]12CN(C(=O)c3nccs3)C[C@@H]1[C@H]2c1ccccc1 (stereo in doubt) [Example 158]", 12),
    ("Cc1cc2c(cnn2-c2ccc(F)cc2)cc1[C@@]12CN(C(=O)c3ncnn3C)C[C@@H]1[C@H]2c1ccccc1 (single isomer, unassigned) [Example 170]", 41),
    ("Cc1cc2c(cnn2-c2ccc(F)cc2)cc1[C@@]12CN(S(=O)(=O)N3CC(C#N)C3)C[C@@H]1[C@H]2c1ccccc1 [Example 103]", 27),
    ("CCOC(=O)N1C[C@@H]2[C@@H](c3ccccc3)[C@]2(c2cc3cnn(-c4ccc(F)cc4)c3cc2C)C1 (single isomer, unassigned) [Example 122]", 22),
    ("Cc1cc2c(cnn2-c2ccc(F)cc2)cc1C12CN(S(=O)(=O)c3cnn(C)n3)CC1C2c1ncco1 (stereo not drawn) [Example 133]", 260),
    ("Cc1cc2c(cnn2-c2ccc(F)cc2)cc1[C@@]12CN(C(=O)c3ccccc3)C[C@@H]1[C@]2(C)c1ccccc1 (stereo in doubt) [Example 182]", 180),
    ("Cc1cc2c(cnn2-c2ccc(F)cc2)cc1[C@@]12CN(C(=O)c3ccccc3)C[C@@H]1[C@H]2c1ccccc1 (stereo in doubt) [Example 110]", 23),
    ("Cc1cc2c(cnn2-c2ccc(F)cc2)cc1[C@]12CN(C(=O)c3cnnn3C)C[C@H]1[C@@H]2c1ccccc1 [Example 144]", 120),
]

----------
Target: glucocorticoid receptor (Homo sapiens (Human))
Experiment: HepG2 TAT assay: inhibition of dexamethasone-induced tyrosine aminotransferase (TAT) activity
Conditions: HepG2 cells, challenge of 100 nM dexamethasone, 18-24 hr; IC50 converted to Ki by Cheng and Prusoff equation
Listed here: items and their measured Ki.

# compound, test-target, Ki
measured = [
    ("COCCn1cc(S(=O)(=O)N2C[C@H]3[C@H](c4ccccc4)[C@@]3(c3cc4cnn(-c5ccc(F)cc5)c4cc3C)C2)cn1", "glucocorticoid receptor (Homo sapiens (Human))", "33 nM"),
    ("Cc1cc2c(cnn2-c2ccc(F)cc2)cc1[C@@]12CN(C(=O)c3cccc(C#N)n3)C[C@@H]1[C@H]2c1ccccc1 (stereo in doubt)", "glucocorticoid receptor (Homo sapiens (Human))", "7.2 nM"),
    ("Cc1cc2c(cnn2-c2ccc(F)cc2)cc1[C@]12CN(S(=O)(=O)c3cnn(C)c3)C[C@H]1[C@@H]2c1cccc(Cl)c1", "glucocorticoid receptor (Homo sapiens (Human))", "110 nM"),
]

----------
Target: glucocorticoid receptor (Homo sapiens (Human))
Assay: HepG2 TAT assay: inhibition of dexamethasone-induced tyrosine aminotransferase (TAT) activity
Settings: HepG2 cells, challenge of 100 nM dexamethasone, 18-24 hr; IC50 converted to Ki by Cheng and Prusoff equation
pKi: −log10 of the molar value.
Item-by-item account of pKi

# molecule, pKi
rows = [
    ("COCCOCCS(=O)(=O)N1C[C@@H]2[C@@H](c3ccccc3)[C@]2(c2cc3cnn(-c4ccc(F)cc4)c3cc2C)C1 (stereo in doubt) [Example 138]", 7.15),
    ("Cc1cc2c(cnn2-c2ccc(F)cc2)cc1[C@@]12CN(C(=O)c3ncccn3)C[C@@H]1[C@H]2c1ccccc1 (stereo in doubt) [Example 171]", 7.44),
    ("Cc1csc(C(=O)N2C[C@@H]3[C@@H](c4ccccc4)[C@]3(c3cc4cnn(-c5ccc(F)cc5)c4cc3C)C2)n1 (stereo in doubt) [Example 175]", 7.89),
]

----------
Molecular target: glucocorticoid receptor (Homo sapiens (Human))
Assay: HepG2 TAT assay: inhibition of dexamethasone-induced tyrosine aminotransferase (TAT) activity
Details: HepG2 cells, challenge of 100 nM dexamethasone, 18-24 hr; IC50 converted to Ki by Cheng and Prusoff equation

# compound, test-target, Ki
measured = [
    ("Cc1cc2c(cnn2-c2ccc(F)cc2)cc1[C@@]12CN(C(=O)c3ncn(C)n3)C[C@@H]1[C@H]2c1ccccc1 (single isomer, unassigned)", "glucocorticoid receptor (Homo sapiens (Human))", "26 nM"),
    ("COC(=O)N1C[C@@H]2[C@@H](c3ccccc3)[C@]2(c2cc3cnn(-c4ccc(F)cc4)c3cc2C)C1 (single isomer, unassigned)", "glucocorticoid receptor (Homo sapiens (Human))", "40 nM"),
    ("Cc1cc2c(cnn2-c2ccc(F)cc2)cc1C12CN(S(=O)(=O)c3cnn(C)c3)CC1CC(O)(c1ccccn1)C2 (stereo not drawn)", "glucocorticoid receptor (Homo sapiens (Human))", "330 nM"),
]
